- SYSTEM UNDER TEST: human CB1 receptor (Homo sapiens, UniProt P21554)
- Construct: expressed in transfected cells; host or cells: SK-N-MC cells, stably transfected with pcDNA3 CB-1 (human); semi-purified membrane pellet
- Sequence (P21554 whole entry): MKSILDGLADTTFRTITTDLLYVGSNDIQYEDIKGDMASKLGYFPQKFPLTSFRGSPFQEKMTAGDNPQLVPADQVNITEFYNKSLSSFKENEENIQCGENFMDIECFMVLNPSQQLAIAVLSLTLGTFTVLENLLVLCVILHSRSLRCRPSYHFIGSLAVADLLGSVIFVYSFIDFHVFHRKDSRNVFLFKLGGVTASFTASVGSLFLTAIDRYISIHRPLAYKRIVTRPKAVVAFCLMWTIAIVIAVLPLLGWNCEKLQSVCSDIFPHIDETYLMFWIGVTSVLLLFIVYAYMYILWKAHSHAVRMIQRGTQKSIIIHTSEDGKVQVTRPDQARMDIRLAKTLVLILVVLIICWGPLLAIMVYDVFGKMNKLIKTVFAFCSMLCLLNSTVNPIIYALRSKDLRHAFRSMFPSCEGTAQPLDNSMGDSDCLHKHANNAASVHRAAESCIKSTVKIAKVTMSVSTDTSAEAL
- PROTOCOL DESCRIPTION: biochemical
- Type: binding
pIC50: −log10 of the molar value.
Label rule, in plain words: pIC50 of 7 and up is True, under 7 is False.

- COMPOUND: "O=C(NN1CCCC1)c1nn(-c2ccc(Cl)cc2Cl)c2c1CCCC2=Cc1ccc(Cl)s1"
  SYSTEM UNDER TEST: "human CB1 receptor (Homo sapiens, UniProt P21554)"
  ASSIGNED LABEL: "True"
- COMPOUND: "COC(=O)C(Cc1ccc(O)cc1)NC(=O)c1nn(-c2ccc(OC)cc2)c2c1CCCC2 (centres unmarked)"
  SYSTEM UNDER TEST: "human CB1 receptor (Homo sapiens, UniProt P21554)"
  ASSIGNED LABEL: "False"
- COMPOUND: "O=C(NCC12CC3CC(CC(C3)C1)C2)c1c2c(nn1-c1ccc(Cl)cc1Cl)CCCC2"
  SYSTEM UNDER TEST: "human CB1 receptor (Homo sapiens, UniProt P21554)"
  ASSIGNED LABEL: "False"
- COMPOUND: "CCOC(=O)[C@@H]1C2CCC(C2)[C@@H]1NC(=O)c1nn(C2CCCCC2)c2c1CCCC2 (some centres unmarked)"
  SYSTEM UNDER TEST: "human CB1 receptor (Homo sapiens, UniProt P21554)"
  ASSIGNED LABEL: "False"
- COMPOUND: "CCOC(=O)C1CCc2c(c(C(=O)NC3C4CC5CC(C4)CC3C5)nn2C2CCCCC2)C1 (centres unmarked)"
  SYSTEM UNDER TEST: "human CB1 receptor (Homo sapiens, UniProt P21554)"
  ASSIGNED LABEL: "False"
- COMPOUND: "CC12CCC(C1)C(C)(C)C2NC(=O)c1nn(-c2ccc(F)cc2)c2c1CCCC2 (centres unmarked)"
  SYSTEM UNDER TEST: "human CB1 receptor (Homo sapiens, UniProt P21554)"
  ASSIGNED LABEL: "True"
- COMPOUND: "C[C@H](NC(=O)c1nn(-c2ccc(Cl)cc2Cl)c2c1CCCC2=Cc1ccc(F)cc1)C1CCCCC1"
  SYSTEM UNDER TEST: "human CB1 receptor (Homo sapiens, UniProt P21554)"
  ASSIGNED LABEL: "True"
- COMPOUND: "O=C(NN1CCOCC1)c1nn(-c2ccc(Cl)cc2Cl)c2c1CCC/C2=C\\c1ccc(Cl)cc1"
  SYSTEM UNDER TEST: "human CB1 receptor (Homo sapiens, UniProt P21554)"
  ASSIGNED LABEL: "False"
- COMPOUND: "CCN(C(=O)c1nn(C2CCCCC2)c2c1CCCC2)[C@H](C)C1CCCCC1"
  SYSTEM UNDER TEST: "human CB1 receptor (Homo sapiens, UniProt P21554)"
  ASSIGNED LABEL: "False"
- COMPOUND: "O=C(NCC12CC3CC(CC(C3)C1)C2)c1nn(-c2ccc(Cl)cc2Cl)c2c1CCCC2"
  SYSTEM UNDER TEST: "human CB1 receptor (Homo sapiens, UniProt P21554)"
  ASSIGNED LABEL: "False"
- COMPOUND: "CCOC(=O)C1CCc2nn(C3CCCCC3)c(C(=O)NC3C4CC5CC(C4)CC3C5)c2C1 (centres unmarked)"
  SYSTEM UNDER TEST: "human CB1 receptor (Homo sapiens, UniProt P21554)"
  ASSIGNED LABEL: "False"
- COMPOUND: "O=C(NC1CCCCCCC1)c1nn(Cc2ccccc2)c2c1CCCC2"
  SYSTEM UNDER TEST: "human CB1 receptor (Homo sapiens, UniProt P21554)"
  ASSIGNED LABEL: "True"
- COMPOUND: "CCOC(=O)C1CCc2c(C(=O)N[C@H](C)C3CCCCC3)nn(C3CCCCC3)c2C1 (some centres unmarked)"
  SYSTEM UNDER TEST: "human CB1 receptor (Homo sapiens, UniProt P21554)"
  ASSIGNED LABEL: "False"
- COMPOUND: "C[C@@H](NC(=O)c1nn(-c2ccc(Cl)cc2Cl)c2c1CCCC2=Cc1ccoc1)C1CCCCC1"
  SYSTEM UNDER TEST: "human CB1 receptor (Homo sapiens, UniProt P21554)"
  ASSIGNED LABEL: "True"
- COMPOUND: "C[C@@H](NC(=O)c1nn(-c2ccc(Cl)cc2Cl)c2c1CCC/C2=C\\c1ccc(Cl)s1)c1ccccc1"
  SYSTEM UNDER TEST: "human CB1 receptor (Homo sapiens, UniProt P21554)"
  ASSIGNED LABEL: "True"
- COMPOUND: "CCOC(=O)[C@@H]1CCc2c(c(C(=O)NC(C)C34CC5CC(CC(C5)C3)C4)nn2C2CCCCC2)C1 (some centres unmarked)"
  SYSTEM UNDER TEST: "human CB1 receptor (Homo sapiens, UniProt P21554)"
  ASSIGNED LABEL: "False"
- COMPOUND: "CCOC(=O)[C@@H]1CCc2c(c(C(=O)NC3C4CC5CC(C4)CC3C5)nn2Cc2ccccc2)C1 (some centres unmarked)"
  SYSTEM UNDER TEST: "human CB1 receptor (Homo sapiens, UniProt P21554)"
  ASSIGNED LABEL: "True"
- COMPOUND: "CCOC(=O)[C@H]1CCC[C@H]1NC(=O)c1nn(C2CCCCC2)c2c1CCCC2"
  SYSTEM UNDER TEST: "human CB1 receptor (Homo sapiens, UniProt P21554)"
  ASSIGNED LABEL: "False"
- COMPOUND: "O=C(NC1CCCCCCC1)c1nn(-c2ccc(F)cc2)c2c1CCCC2"
  SYSTEM UNDER TEST: "human CB1 receptor (Homo sapiens, UniProt P21554)"
  ASSIGNED LABEL: "False"
- COMPOUND: "COC(=O)C(Cc1ccc(O)cc1)NC(=O)c1nn(C2CCCCC2)c2c1CCCC2 (centres unmarked)"
  SYSTEM UNDER TEST: "human CB1 receptor (Homo sapiens, UniProt P21554)"
  ASSIGNED LABEL: "True"
- COMPOUND: "O=C(NN1CC2CCCC2C1)c1nn(-c2ccc(Cl)cc2Cl)c2c1CCC/C2=C\\c1ccc(Cl)s1 (centres unmarked)"
  SYSTEM UNDER TEST: "human CB1 receptor (Homo sapiens, UniProt P21554)"
  ASSIGNED LABEL: "True"
- COMPOUND: "O=C(CCc1nn(C2CCCCC2)c2c1CCCC2)N[C@@H]1C2CCC(C2)[C@@H]1CO (some centres unmarked)"
  SYSTEM UNDER TEST: "human CB1 receptor (Homo sapiens, UniProt P21554)"
  ASSIGNED LABEL: "False"
- COMPOUND: "C[C@@H](NC(=O)c1nn(-c2ccc(Cl)cc2Cl)c2c1CCC/C2=C\\c1ccoc1)c1ccccc1"
  SYSTEM UNDER TEST: "human CB1 receptor (Homo sapiens, UniProt P21554)"
  ASSIGNED LABEL: "True"
- COMPOUND: "CCOC(=O)[C@@H]1CCc2c(c(C(=O)NC3C4CC5CC(C4)CC3C5)nn2C2CCCCC2)C1 (some centres unmarked)"
  SYSTEM UNDER TEST: "human CB1 receptor (Homo sapiens, UniProt P21554)"
  ASSIGNED LABEL: "False"

----------
- SYSTEM UNDER TEST: human CB2 receptor (Homo sapiens)
- Sequence (P34972 whole entry): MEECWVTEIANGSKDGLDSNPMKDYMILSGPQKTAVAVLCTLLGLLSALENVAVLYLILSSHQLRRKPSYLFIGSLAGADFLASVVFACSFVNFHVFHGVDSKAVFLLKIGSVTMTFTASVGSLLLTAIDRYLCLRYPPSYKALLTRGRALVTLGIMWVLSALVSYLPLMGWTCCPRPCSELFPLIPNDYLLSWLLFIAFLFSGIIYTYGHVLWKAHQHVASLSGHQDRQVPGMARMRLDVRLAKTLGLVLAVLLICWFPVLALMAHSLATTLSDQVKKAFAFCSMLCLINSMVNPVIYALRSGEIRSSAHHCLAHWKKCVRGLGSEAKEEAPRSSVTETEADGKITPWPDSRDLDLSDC
- PROTOCOL DESCRIPTION: Binding assay, cannabinoid CB2 receptor ([3H]-CP-55,940 displacement)
- CONDITION CONTEXT: Cannabinoid CB2 Receptor Binding IC50, human CB2 receptor, SK-N-MC cell membranes, radioligand CP-55,940 0.2 nM

- MOLECULE: "CC12CCC(C1)C(C)(C)C2NC(=O)c1nn(-c2cccc(F)c2)c2c1CCCC2 (centres unmarked) [compound 18]"
  IC50: "3.6 nM"
- MOLECULE: "C[C@@H]1[C@@H](NC(=O)c2nn(C3CCCCC3)c3c2CCCC3)C[C@H]2C[C@@H]1C2(C)C [compound 216]"
  IC50: "70 nM"
- MOLECULE: "CC(C)(C)OC(=O)NC1CCc2c(c(C(=O)NC3C4(C)CCC(C4)C3(C)C)nn2C2CCCCC2)C1 (centres unmarked) [Cpd 86]"
  IC50: "275 nM"
- MOLECULE: "COC1CCCc2c(C(=O)NC(C)C34CC5CC(CC(C5)C3)C4)nn(C3CCCCC3)c21 (centres unmarked) [compound 161]"
  IC50: "775 nM"
- MOLECULE: "O=C(NC1CCCc2ccccc21)c1nn(C2CCCCC2)c2c1CCCC2 (centres unmarked) [compound 183]"
  IC50: "6.9 nM"
- MOLECULE: "C[C@H](C1CCCCC1)N(C)C(=O)c1nn(C2CCCCC2)c2c1CCCC2 [Cpd 328]"
  IC50: "1600 nM"
- MOLECULE: "O=C(N[C@@H]1CCCC[C@H]1CO)c1nn(C2CCCCC2)c2c1CCCC2 [compound 49]"
  IC50: "72.8 nM"
- MOLECULE: "CC(C)(C)CC(C)(C)NC(=O)C1CCc2c(c(C(=O)NC3C4CC5CC(C4)CC3C5)nn2C2CCCCC2)C1 (centres unmarked) [Cpd 228]"
  IC50: "250 nM"
- MOLECULE: "CCOC(=O)[C@H]1CCC[C@H]1NC(=O)c1nn(C2CCCCC2)c2c1CCCC2 [compound 58]"
  IC50: "170 nM"
- MOLECULE: "COc1ccc(C(=O)CNC(=O)c2nn(C3CCCCC3)c3c2CCCC3)cc1 [Cpd 176]"
  IC50: "4000 nM"
- MOLECULE: "CCOC(=O)[C@@H]1C2C=CC(C2)[C@@H]1NC(=O)c1c2c(nn1Cc1ccccc1)CCCC2 (some centres unmarked) [compound 277]"
  IC50: "3300 nM"
- MOLECULE: "CC(=O)OC1CCc2c(c(C(=O)NC3C4(C)CCC(C4)C3(C)C)nn2C2CCCCC2)C1 (centres unmarked) [compound 94]"
  IC50: "20 nM"
- MOLECULE: "O=C(CCc1nn(C2CCCCC2)c2c1CCCC2)N[C@@H]1CCCC[C@H]1CO [compound 51]"
  IC50: "8420 nM"
- MOLECULE: "O=C(NCC1CCCCC1)c1nn(Cc2ccccc2)c2c1CCCC2 [compound 189]"
  IC50: "10 nM"
- MOLECULE: "C[C@@H](NC(=O)c1nn(C2CCCCC2)c2c1CCCC2)c1ccccc1 [compound 197]"
  IC50: "800 nM"
- MOLECULE: "O=C(NC(c1ccccc1)C1CCCCC1)c1nn(C2CCCCC2)c2c1CCCC2 (centres unmarked) [Cpd 331]"
  IC50: "98 nM"
- MOLECULE: "O=C(CNC(=O)c1nn(C2CCCCC2)c2c1CCCC2)c1ccccc1 [compound 188]"
  IC50: "5100 nM"

Reference source: patent US7452997B2
